# Method: TRM-201-PK-102 single-dose four-period crossover pharmacokinetic study, fasted healthy subjects
# Assay type: in vivo, human
# Applied conditions: human, plasma, oral, 12.5 mg, 102 study only, read-out: geometric mean Cmax
Observed property: Cmax (ng/mL)
I only need the number, in ng/mL, no unit after it.

Recorded Cmax of CS(=O)(=O)c1ccc(C2=C(c3ccccc3)C(=O)OC2)cc1 , please. 144

====

# Method: TRM-201-PK-102 single-dose four-period crossover pharmacokinetic study, fasted healthy subjects
# Format: in vivo, human
# Applied conditions: human, plasma, oral, 20 mg, 102 study, body weight 70.1-77 kg, read-out: geometric mean AUC0-∞
Observed property: AUC(0-inf)
Don't forget the unit after the number, please.

Recorded AUC(0-inf) of CS(=O)(=O)c1ccc(C2=C(c3ccccc3)C(=O)OC2)cc1 [TRM-201] , please. 4400 ng·h/mL

====

# Method: TRM-201-PK-102 single-dose four-period crossover pharmacokinetic study, fasted healthy subjects
# Format: in vivo, human
# Applied conditions: human, plasma, oral, 20 mg, 102 study only, read-out: geometric mean AUC0-∞
Observed property: AUC(0-inf) (ng·h/mL)
I only need the number, in ng·h/mL, no unit after it.

Recorded AUC(0-inf) of CS(=O)(=O)c1ccc(C2=C(c3ccccc3)C(=O)OC2)cc1 [TRM-201] , please. 3550

====

# Method: TRM-201-PK-102 single-dose four-period crossover pharmacokinetic study, fasted healthy subjects
# Assay type: in vivo, human
# Applied conditions: human, plasma, oral, 17.5 mg, 102 study, 41-52 years, read-out: geometric mean AUC0-∞
Observed property: AUC(0-inf) (ng·h/mL)
I only need the number, in ng·h/mL, no unit after it.

Recorded AUC(0-inf) of CS(=O)(=O)c1ccc(C2=C(c3ccccc3)C(=O)OC2)cc1 , please. 3160

====

# Method: 101 and 102 PK studies combined (fasted)
# Type: in vivo
# Applied conditions: human, plasma, oral, 25 mg, 101 and 102 studies combined, read-out: median t1/2 (converted)
Observed property: half-life (h)
I only need the number, in h, no unit after it.

Recorded half-life of CS(=O)(=O)c1ccc(C2=C(c3ccccc3)C(=O)OC2)cc1 , please. 11.6

====

# Method: 101 and 102 PK studies combined (fasted)
# Format: in vivo
# Applied conditions: human, plasma, oral, 12.5 mg, 101 and 102 studies (FIG. 47), read-out: geometric mean AUC0-∞
Observed property: AUC(0-inf) (ng·h/mL)
I only need the number, in ng·h/mL, no unit after it.

Recorded AUC(0-inf) of CS(=O)(=O)c1ccc(C2=C(c3ccccc3)C(=O)OC2)cc1 [TRM-201] , please. 1880

====

# Method: 101 and 102 PK studies combined (fasted)
# Format: in vivo
# Applied conditions: human, plasma, oral, 25 mg, 101 and 102 studies combined, read-out: Tmax
Observed property: Tmax (h)
I only need the number, in h, no unit after it.

Recorded Tmax of CS(=O)(=O)c1ccc(C2=C(c3ccccc3)C(=O)OC2)cc1 [TRM-201] , please. 2.5

====

# Method: TRM-201-PK-102 single-dose four-period crossover pharmacokinetic study, fasted healthy subjects
# Format: in vivo, human
# Applied conditions: human, plasma, oral, 25 mg, 102 study, White subjects, read-out: arithmetic mean AUC0-∞
Observed property: AUC(0-inf) (ng·h/mL)
I only need the number, in ng·h/mL, no unit after it.

Recorded AUC(0-inf) of CS(=O)(=O)c1ccc(C2=C(c3ccccc3)C(=O)OC2)cc1 , please. 4800

====

# Method: TRM-201-PK-102 single-dose four-period crossover pharmacokinetic study, fasted healthy subjects
# Type: in vivo, human
# Applied conditions: human, plasma, oral, 25 mg, 102 study, 18-40 years, read-out: geometric mean Cmax
Observed property: Cmax (ng/mL)
I only need the number, in ng/mL, no unit after it.

Recorded Cmax of CS(=O)(=O)c1ccc(C2=C(c3ccccc3)C(=O)OC2)cc1 , please. 356

====

# Method: TRM-201-PK-102 single-dose four-period crossover pharmacokinetic study, fasted healthy subjects
# Type: in vivo, human
# Applied conditions: human, plasma, oral, 20 mg, 15 minutes, read-out: arithmetic mean plasma concentration
Observed property: concentration at 15 minutes (ng/mL)
I only need the number, in ng/mL, no unit after it.

Recorded concentration at 15 minutes of CS(=O)(=O)c1ccc(C2=C(c3ccccc3)C(=O)OC2)cc1 , please. 5.75

====

# Method: TRM-201-PK-102 single-dose four-period crossover pharmacokinetic study, fasted healthy subjects
# Type: in vivo, human
# Applied conditions: human, plasma, oral, 12.5 mg, 45 minutes, read-out: geometric mean plasma concentration
Observed property: concentration at 45 minutes (ng/mL)
I only need the number, in ng/mL, no unit after it.

Recorded concentration at 45 minutes of CS(=O)(=O)c1ccc(C2=C(c3ccccc3)C(=O)OC2)cc1 , please. 33.9

====

# Method: TRM-201-PK-102 single-dose four-period crossover pharmacokinetic study, fasted healthy subjects
# Assay type: in vivo, human
# Applied conditions: human, plasma, oral, 25 mg, 15 minutes, read-out: geometric mean plasma concentration
Observed property: concentration at 15 minutes (ng/mL)
I only need the number, in ng/mL, no unit after it.

Recorded concentration at 15 minutes of CS(=O)(=O)c1ccc(C2=C(c3ccccc3)C(=O)OC2)cc1 , please. 1.37

====

# Method: 101 and 102 PK studies combined (fasted)
# Format: in vivo
# Applied conditions: human, plasma, oral, 20 mg, 101 and 102 studies (FIG. 47), read-out: arithmetic mean Cmax
Observed property: Cmax

Recorded Cmax of CS(=O)(=O)c1ccc(C2=C(c3ccccc3)C(=O)OC2)cc1 [TRM-201] , please. 277 ng/mL

====

# Method: TRM-201-PK-102 single-dose four-period crossover pharmacokinetic study, fasted healthy subjects
# Type: in vivo, human
# Applied conditions: human, plasma, oral, 17.5 mg, 102 study only, read-out: arithmetic mean AUC0-∞
Observed property: AUC(0-inf) (µg·h/mL)
I only need the number, in µg·h/mL, no unit after it.

Recorded AUC(0-inf) of CS(=O)(=O)c1ccc(C2=C(c3ccccc3)C(=O)OC2)cc1 , please. 3.29

====

# Method: TRM-201-PK-102 single-dose four-period crossover pharmacokinetic study, fasted healthy subjects
# Assay type: in vivo, human
# Applied conditions: male, human, plasma, oral, 12.5 mg, 102 study, males, read-out: geometric mean AUC0-∞
Observed property: AUC(0-inf) (ng·h/mL)
I only need the number, in ng·h/mL, no unit after it.

Recorded AUC(0-inf) of CS(=O)(=O)c1ccc(C2=C(c3ccccc3)C(=O)OC2)cc1 , please. 1580

====

# Method: TRM-201-PK-102 single-dose four-period crossover pharmacokinetic study, fasted healthy subjects
# Format: in vivo, human
# Applied conditions: human, plasma, oral, 17.5 mg, 45 minutes, read-out: geometric mean plasma concentration
Observed property: concentration at 45 minutes (ng/mL)
I only need the number, in ng/mL, no unit after it.

Recorded concentration at 45 minutes of CS(=O)(=O)c1ccc(C2=C(c3ccccc3)C(=O)OC2)cc1 [TRM-201] , please. 51.6

====

# Method: 101 and 102 PK studies combined (fasted)
# Format: in vivo
# Applied conditions: human, plasma, oral, 12.5 mg, 101 and 102 studies (FIG. 47), read-out: arithmetic mean AUC0-∞
Observed property: AUC(0-inf) (ng·h/mL)
I only need the number, in ng·h/mL, no unit after it.

Recorded AUC(0-inf) of CS(=O)(=O)c1ccc(C2=C(c3ccccc3)C(=O)OC2)cc1 [TRM-201] , please. 2010

====

# Method: TRM-201-PK-102 single-dose four-period crossover pharmacokinetic study, fasted healthy subjects
# Assay type: in vivo, human
# Applied conditions: human, plasma, oral, 25 mg, 102 study, non-Hispanic or non-Latino subjects, read-out: geometric mean Cmax
# Procedure: A Single-Dose, Open-Label, Phase 1, Four-Period Crossover Pharmacokinetic Study of TRM-201 (Rofecoxib) 12.5 mg, 17.5 mg, 20 mg and 25 mg Administered to Healthy Subjects in a Fasting State, with Comparison to Historical Pharmacokinetic Parameters of Previously Marketed Rofecoxib (“TRM-201-PK-102” or “102 PK Study”) […] In each of the four dosing periods, subjects fasted overnight for at least 10 hours before study drug dosing. […] Pharmacokinetic and safety endpoints were evaluated. […]
Observed property: Cmax (ng/mL)
I only need the number, in ng/mL, no unit after it.

Recorded Cmax of CS(=O)(=O)c1ccc(C2=C(c3ccccc3)C(=O)OC2)cc1 [TRM-201] , please. 331

====

# Method: TRM-201-PK-102 single-dose four-period crossover pharmacokinetic study, fasted healthy subjects
# Type: in vivo, human
# Applied conditions: human, plasma, oral, 12.5 mg, 102 study, body weight 77.1-90 kg, read-out: arithmetic mean Cmax
# Experimental: A Single-Dose, Open-Label, Phase 1, Four-Period Crossover Pharmacokinetic Study of TRM-201 (Rofecoxib) 12.5 mg, 17.5 mg, 20 mg and 25 mg Administered to Healthy Subjects in a Fasting State, with Comparison to Historical Pharmacokinetic Parameters of Previously Marketed Rofecoxib (“TRM-201-PK-102” or “102 PK Study”) […] In each of the four dosing periods, subjects fasted overnight for at least 10 hours before study drug dosing. […] Pharmacokinetic and safety endpoints were evaluated. […]
Observed property: Cmax (ng/mL)
I only need the number, in ng/mL, no unit after it.

Recorded Cmax of CS(=O)(=O)c1ccc(C2=C(c3ccccc3)C(=O)OC2)cc1 , please. 127
